Test system: human gastric adenocarcinoma cells AGS
experiment description: MTT in vitro cell proliferation inhibition experiment, AGS
Format: cell-based
measurement conditions: Homo sapiens, MTT method, 48 h contact between compound and cell, read-out: Antiproliferative activity (IC50, μM) AGS
property label: IC50 (µM)

Query block: Under human gastric adenocarcinoma cells AGS: report IC50 of O=C(c1nc2ccccc2[nH]1)C1C(c2ccc(Cl)cc2)C(c2c[nH]c3ccccc23)NC12C(=O)c1ccccc1C2=O (centres unmarked) .
Result block: 39.7

Query block: Under human gastric adenocarcinoma cells AGS: report IC50 of O=C(c1nc2ccccc2[nH]1)C1C(c2ccc(Br)cc2)C2CCCN2C12C(=O)c1ccccc1C2=O (centres unmarked) .
Result block: 25.7

Query block: Under human gastric adenocarcinoma cells AGS: report IC50 of CCC(C)C1NC2(C(=O)c3ccccc3C2=O)C(C(=O)c2nc3ccccc3[nH]2)C1c1ccc(Cl)cc1 (centres unmarked) .
Result block: 87.5

Query block: Under human gastric adenocarcinoma cells AGS: report IC50 of CCC(C)C1NC2(C(=O)c3ccccc3C2=O)C(C(=O)c2nc3ccccc3[nH]2)C1c1ccc(C)cc1 (centres unmarked) .
Result block: 94

Query block: Under human gastric adenocarcinoma cells AGS: report IC50 of CC(C)C1NC2(C(=O)c3ccccc3C2=O)C(C(=O)c2nc3ccccc3[nH]2)C1c1ccc(Cl)c(F)c1 (centres unmarked) .
Result block: 60

Query block: Under human gastric adenocarcinoma cells AGS: report IC50 of CC(C)CC1NC2(C(=O)c3ccccc3C2=O)C(C(=O)c2nc3ccccc3[nH]2)C1c1ccc(Br)cc1 (centres unmarked) .
Result block: 20.9

I. CSCCC1NC2(C(=O)c3ccccc3C2=O)C(C(=O)c2nc3ccccc3[nH]2)C1C1CCCCC1 (centres unmarked)
II. CCC(C)C1NC2(C(=O)c3ccccc3C2=O)C(C(=O)c2nc3ccccc3[nH]2)C1C1CCCCC1 (centres unmarked)
III. CSCCC1NC2(C(=O)c3ccccc3C2=O)C(C(=O)c2nc3ccccc3[nH]2)C1c1ccc(Br)cc1 (centres unmarked)
IV. CSCCC1NC2(C(=O)c3ccccc3C2=O)C(C(=O)c2nc3ccccc3[nH]2)C1c1ccc(Cl)c(F)c1 (centres unmarked)
V. O=C(c1nc2ccccc2[nH]1)C1C(c2ccc(Cl)c(F)c2)C(c2c[nH]c3ccccc23)NC12C(=O)c1ccccc1C2=O (centres unmarked)
Query block: Arrange these molecules by their IC50, starting with the largest number. In plain terms: list the labels in the order you were asked to.
Result block: III, IV, II, I, V
(III: 66.2 µM, IV: 39.7 µM, II: 14.7 µM, I: 9.77 µM, V: 3.01 µM)
